Read-out: TIMP metallopeptidase inhibitor 2 (TIMP2), TIMP2 (gene 7077)
Experiment: BSK_KF3CT_TIMP2: BioMAP Diversity Plus: KF3CT Assay for TIMP metallopeptidase inhibitor 2 (TIMP2) Biomarker Activity (AID 2283071)
Conditions: primary human keratinocytes with fibroblasts; actives raise or lower the signal
The source made the active and inactive calls. The calls were made as follows: active = hit-call score of the fitted dose curve at least 0.9, where 1 is the maximum; inactive = score below 0.9.
Response enum: active, inactive

compound	qualitative_label
CC(c1ccc(O)cc1)(c1ccc(O)cc1)c1ccc(O)cc1	active

Q. Hey, what did the test say about Clc1ccc(C(c2ccccc2Cl)C(Cl)(Cl)Cl)cc1 (stereo unspecified) ?
A. active

Q. What is the recorded call for this compound in the test? Cc1cccc(C)c1N
A. inactive

Q. Please let me know the test result on file for CCC(C)(CC)c1cc(NC(=O)c2c(OC)cccc2OC)on1 .
A. inactive

Q. For Cc1ccccc1[N+](=O)[O-] , what call appears in the results of this test?
A. inactive

Q. For O=S(=O)(O)C(F)(F)C(F)(F)C(F)(F)C(F)(F)C(F)(F)C(F)(F)F , which call appears in the assay record?
A. inactive

====

Test: ATG_MRE_CIS: Attagene CIS-FACTORIAL HepG2 Assay for human Metal Responsive Element (MRE) (AID 2282954)
Conditions: HepG2 MRE cis-reporter transcription, Attagene multiplex; actives raise or lower the signal
Procedure: ATG_CIS is a cell-based, multiplexed-readout assay that uses HepG2, a human liver cell line, with measurements taken at 24 hours after chemical dosing in a 24-well plate.ATG_MRE_CIS is one of 52 assay component(s) measured or calculated from the ATG_CIS assay. […] This assay endpoint, ATG_MRE_CIS, was analyzed with bidirectional fitting relative to DMSO as the negative control and baseline of activity. […]
Calls of active or inactive are those of the source. The calls were made as follows: active = hit-call score of the fitted dose curve at least 0.9, where 1 is the maximum; inactive = score below 0.9.
Outcome field: choose from yes (active), no (inactive)

molecule	qualitative_label
CC(c1ccc(O)cc1)(c1ccc(O)cc1)c1ccc(O)cc1	yes

Q. Please indicate how the test categorized CN(C)c1nc(=O)n(C2CCCCC2)c(=O)n1C .
A. no

====

Target: PGR (gene 5241) (UniProt P06401)
Sequence (P06401 whole entry, looked up): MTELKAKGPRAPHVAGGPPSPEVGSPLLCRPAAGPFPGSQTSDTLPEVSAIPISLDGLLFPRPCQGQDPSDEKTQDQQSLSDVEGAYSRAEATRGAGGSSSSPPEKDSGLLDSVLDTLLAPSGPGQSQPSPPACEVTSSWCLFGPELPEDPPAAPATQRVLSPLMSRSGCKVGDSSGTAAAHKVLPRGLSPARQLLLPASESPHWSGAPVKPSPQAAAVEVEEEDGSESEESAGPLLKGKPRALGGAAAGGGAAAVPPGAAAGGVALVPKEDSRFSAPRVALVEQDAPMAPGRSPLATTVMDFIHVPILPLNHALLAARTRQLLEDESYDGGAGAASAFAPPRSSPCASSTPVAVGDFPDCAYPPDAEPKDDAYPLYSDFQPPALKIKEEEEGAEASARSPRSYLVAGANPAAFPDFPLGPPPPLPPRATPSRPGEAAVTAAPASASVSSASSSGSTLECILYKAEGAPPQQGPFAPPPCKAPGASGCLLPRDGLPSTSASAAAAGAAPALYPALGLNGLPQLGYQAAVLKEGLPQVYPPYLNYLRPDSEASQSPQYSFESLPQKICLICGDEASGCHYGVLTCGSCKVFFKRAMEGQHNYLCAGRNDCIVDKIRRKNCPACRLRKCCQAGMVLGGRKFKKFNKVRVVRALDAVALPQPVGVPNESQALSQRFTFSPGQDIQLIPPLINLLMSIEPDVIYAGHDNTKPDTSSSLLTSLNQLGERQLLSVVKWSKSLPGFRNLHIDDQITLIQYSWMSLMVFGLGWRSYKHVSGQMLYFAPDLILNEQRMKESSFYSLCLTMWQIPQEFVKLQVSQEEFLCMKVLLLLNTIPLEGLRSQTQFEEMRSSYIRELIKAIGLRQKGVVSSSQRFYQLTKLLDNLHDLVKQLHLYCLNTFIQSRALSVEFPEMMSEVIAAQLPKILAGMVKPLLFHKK
Test: TOX21_PR_BLA_Followup_Antagonist_ratio: Tox21 HEK293 Progesterone Receptor (PR) Antagonism Beta-lactamase Follow-Up Assay, Ratio (AID 2283934);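 also: PR-UAS-bla HEK293T cells stimulated with 1 nM R5020 agonist for 16 hr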
Activity calls are given as the source filed them. How the source made its calls: active means hit-call score of the fitted dose curve at least 0.9, where 1 is the maximum; inconclusive means response in the unintended direction; inactive means score below 0.9.
Hi there, use one of these labels in your reply, thanks! 1 (active), -1 (inactive)

Check out these entries, answers already filled in.
molecule	qualitative_label
ClC1=C(Cl)[C@]2(Cl)[C@@H]3[C@@H]4C[C@@H]([C@H]5O[C@@H]45)[C@@H]3[C@@]1(Cl)C2(Cl)Cl	1
N#Cc1ccc(N(CC(N)=O)CC(F)(F)F)cc1C(F)(F)F	1
ClC(Cl)=C(c1ccc(Cl)cc1)c1ccc(Cl)cc1	1
C[C@]12CCC(=O)C=C1CC[C@@H]1[C@@H]2CC[C@@]2(C)[C@H]1CC[C@]2(C)O	-1
CCC(=O)O[C@H]1CC[C@H]2[C@@H]3CCC4=CC(=O)CC[C@]4(C)[C@H]3CC[C@]12C	-1

Now look at this one.
Q. For this molecule, state the assay outcome: C[C@]12CCC(=O)C=C1CC[C@@H]1[C@@H]2CC[C@]2(C)C(=O)CC[C@@H]12
A. 1

====

Experiment: CCTE_Shafer_MEA_acute_cross_correlation_HWHM: CCTE's Neural Acute Assay for Cross Correlation at Half Width at Half Maximum, Shafer Lab (AID 2284026);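 also: percent change per well from pre-dose baseline in spike cross-correlogram half width; hits are a decrease in cross-correlogram half width relative to DMSO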
The source made the active and inactive calls. How the source made its calls: active means hit-call score of the fitted dose curve at least 0.9, where 1 is the maximum; inactive means score below 0.9.
// one of Y (active), N (inactive), no free text

Previously resolved entries follow.
molecule	qualitative_label
Nc1ccc(-c2ccc(N)cc2)cc1	N
CCSC(=O)N(CC)C1CCCCC1	Y
ClC(Cl)=C(c1ccc(Cl)cc1)c1ccc(Cl)cc1	N

Kindly consider the entry below.
Q. How was c1ccc(-c2ccccc2)cc1 classified in this test?
A. N
